assay: Circular dichroism spectroscopy (alpha-helical content, R-value); format: physicochemical; conditions: ratio between the molar ellipticity values at 222 and 208 nm; 20 µM peptide in 10 mM phosphate buffer (pH 7.0) with 50% TFE
In this section, each of the substances is paired with its reported R-value, 50% TFE.

| SUBSTANCE | R-value, 50% TFE |
| --- | --- |
| CB‐KKKK‐LLIILRRRIRKQAHAHSK [CB5-pVEC, pVEC conjugate bearing five meta-carborane clusters] | 0.79 |
| CB-KKKK-GLRKRLRKFRNKIKEK [CB5-sC18, sC18 conjugate bearing five meta-carborane clusters] | 0.92 |
| K‐LLIILRRRIRKQAHAHSK [CB1-pVEC, pVEC conjugate bearing one meta-carborane cluster] | 0.82 |
| KKKK‐LLIILRRRIRKQAHAHSK [CB4-pVEC, pVEC conjugate bearing four meta-carborane clusters] | 0.84 |
